- TEST_PROTOCOL: Plasma clearance in Sprague-Dawley rat at 0.2 mg/kg, iv
- Format: ADME, organism-based
VALUE_TYPE: clearance (mL/min/kg)
Express it in mL/min/kg; write the number only.

Q: Find the recorded clearance belonging to CC1(C)CCC(Nc2ncnc3c2nn2ccccc32)CC1 and report it.
A: 98

* * *

A collection of molecules and their measured IC50
- SYSTEM_NAME: Metabotropic glutamate receptor 5 (Rattus norvegicus, UniProt P31424)
- Sequence (P31424 whole entry): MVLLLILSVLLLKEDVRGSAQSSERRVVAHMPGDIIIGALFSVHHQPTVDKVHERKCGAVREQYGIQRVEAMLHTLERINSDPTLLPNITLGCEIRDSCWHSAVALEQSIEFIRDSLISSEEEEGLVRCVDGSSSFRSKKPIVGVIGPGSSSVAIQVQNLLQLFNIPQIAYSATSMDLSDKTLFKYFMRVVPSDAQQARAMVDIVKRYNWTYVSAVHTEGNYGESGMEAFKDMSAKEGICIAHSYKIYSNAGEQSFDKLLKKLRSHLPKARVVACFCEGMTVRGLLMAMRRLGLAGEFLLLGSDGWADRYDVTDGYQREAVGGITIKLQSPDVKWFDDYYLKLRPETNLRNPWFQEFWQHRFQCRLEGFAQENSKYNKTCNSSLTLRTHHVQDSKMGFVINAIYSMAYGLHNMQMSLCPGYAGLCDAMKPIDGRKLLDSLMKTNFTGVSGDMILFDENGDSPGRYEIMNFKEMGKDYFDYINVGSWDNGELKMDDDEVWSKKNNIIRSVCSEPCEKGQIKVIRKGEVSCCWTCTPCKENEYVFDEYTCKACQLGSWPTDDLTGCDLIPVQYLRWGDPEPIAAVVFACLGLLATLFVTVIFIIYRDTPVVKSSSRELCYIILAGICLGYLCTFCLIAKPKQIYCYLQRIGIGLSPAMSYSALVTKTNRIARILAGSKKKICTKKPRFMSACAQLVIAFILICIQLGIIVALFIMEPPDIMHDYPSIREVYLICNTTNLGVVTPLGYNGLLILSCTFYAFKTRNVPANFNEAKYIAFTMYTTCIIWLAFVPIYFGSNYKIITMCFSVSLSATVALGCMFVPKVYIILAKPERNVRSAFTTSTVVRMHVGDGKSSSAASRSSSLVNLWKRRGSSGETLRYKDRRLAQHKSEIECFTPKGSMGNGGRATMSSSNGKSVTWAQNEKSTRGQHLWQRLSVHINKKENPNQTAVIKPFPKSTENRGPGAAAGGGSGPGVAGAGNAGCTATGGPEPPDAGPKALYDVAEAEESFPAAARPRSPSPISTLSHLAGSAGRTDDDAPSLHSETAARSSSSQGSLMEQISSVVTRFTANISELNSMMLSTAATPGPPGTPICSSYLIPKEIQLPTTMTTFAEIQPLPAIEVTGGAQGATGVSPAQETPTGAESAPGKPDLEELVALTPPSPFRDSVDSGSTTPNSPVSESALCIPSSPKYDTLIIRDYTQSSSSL
- TEST_PROTOCOL: Negative allosteric modulation of rat mGluR5 expressed in HEK293 cells assessed as inhibition of glutamate induced calcium mobilization by calcium mobilization assay
- Assay type: functional, cell-based
- REPORTED_CONDITIONS: read-out: pIC50 (converted)

Please review the following examples before continuing.
{"columns": ["SMILES_INPUT", "IC50"],
 "data": [
  ["C[C@@H](Nc1ncnc2c1nn1ccccc21)C1CC1", "> 31.6 µM"],
  ["FC1(F)CCC(Nc2ncnc3c2nn2ccccc32)CC1", "> 31.6 µM"],
  ["C[C@@H]1[C@H]2C[C@@H](C[C@H]1Nc1ncnc3c1nn1ccccc31)C2(C)C", "> 10 µM"]
]}

Q: Find the recorded IC50 belonging to COCCNc1nc(N[C@H]2CC[C@H](C)CC2)c2nn3ccccc3c2n1 and report it.
A: > 31.6 µM

Q: Find the recorded IC50 belonging to C[C@H]1CC[C@H](Nc2nc(N)nc3c2nn2ccccc32)CC1 and report it.
A: > 31.6 µM

Q: Find the recorded IC50 belonging to C[C@H](Nc1ncnc2c1nn1ccccc21)C(C)(C)C and report it.
A: > 31.6 µM

Q: Find the recorded IC50 belonging to CNc1nc(N[C@H]2CC[C@H](C)CC2)c2nn3ccccc3c2n1 and report it.
A: > 31.6 µM

Q: Find the recorded IC50 belonging to C[C@H](Nc1ncnc2c1nn1ccccc21)C1CC1 and report it.
A: > 31.6 µM

Q: Find the recorded IC50 belonging to CCC(C)(C)Nc1ncnc2c1nn1ccccc21 and report it.
A: > 31.6 µM

Q: Find the recorded IC50 belonging to Cc1nc(N[C@H]2CC[C@H](C)CC2)c2nn3ccccc3c2n1 and report it.
A: > 31.6 µM

Q: Find the recorded IC50 belonging to c1ccn2nc3c(NC4CCCCCC4)ncnc3c2c1 and report it.
A: > 10 µM

Q: Find the recorded IC50 belonging to Cc1nc(N[C@H]2C[C@H]3CC[C@@]2(C)C3(C)C)c2nn3ccccc3c2n1 and report it.
A: > 31.6 µM

Q: Find the recorded IC50 belonging to OC12CC3CC(C1)CC(Nc1ncnc4c1nn1ccccc41)(C3)C2 and report it.
A: > 31.6 µM

Q: Find the recorded IC50 belonging to C[C@@H](Nc1ncnc2c1nn1ccccc21)C(C)(C)C and report it.
A: > 31.6 µM

* * *

- SYSTEM_NAME: Metabotropic glutamate receptor 1 (Rattus norvegicus)
- Sequence (P23385 whole entry): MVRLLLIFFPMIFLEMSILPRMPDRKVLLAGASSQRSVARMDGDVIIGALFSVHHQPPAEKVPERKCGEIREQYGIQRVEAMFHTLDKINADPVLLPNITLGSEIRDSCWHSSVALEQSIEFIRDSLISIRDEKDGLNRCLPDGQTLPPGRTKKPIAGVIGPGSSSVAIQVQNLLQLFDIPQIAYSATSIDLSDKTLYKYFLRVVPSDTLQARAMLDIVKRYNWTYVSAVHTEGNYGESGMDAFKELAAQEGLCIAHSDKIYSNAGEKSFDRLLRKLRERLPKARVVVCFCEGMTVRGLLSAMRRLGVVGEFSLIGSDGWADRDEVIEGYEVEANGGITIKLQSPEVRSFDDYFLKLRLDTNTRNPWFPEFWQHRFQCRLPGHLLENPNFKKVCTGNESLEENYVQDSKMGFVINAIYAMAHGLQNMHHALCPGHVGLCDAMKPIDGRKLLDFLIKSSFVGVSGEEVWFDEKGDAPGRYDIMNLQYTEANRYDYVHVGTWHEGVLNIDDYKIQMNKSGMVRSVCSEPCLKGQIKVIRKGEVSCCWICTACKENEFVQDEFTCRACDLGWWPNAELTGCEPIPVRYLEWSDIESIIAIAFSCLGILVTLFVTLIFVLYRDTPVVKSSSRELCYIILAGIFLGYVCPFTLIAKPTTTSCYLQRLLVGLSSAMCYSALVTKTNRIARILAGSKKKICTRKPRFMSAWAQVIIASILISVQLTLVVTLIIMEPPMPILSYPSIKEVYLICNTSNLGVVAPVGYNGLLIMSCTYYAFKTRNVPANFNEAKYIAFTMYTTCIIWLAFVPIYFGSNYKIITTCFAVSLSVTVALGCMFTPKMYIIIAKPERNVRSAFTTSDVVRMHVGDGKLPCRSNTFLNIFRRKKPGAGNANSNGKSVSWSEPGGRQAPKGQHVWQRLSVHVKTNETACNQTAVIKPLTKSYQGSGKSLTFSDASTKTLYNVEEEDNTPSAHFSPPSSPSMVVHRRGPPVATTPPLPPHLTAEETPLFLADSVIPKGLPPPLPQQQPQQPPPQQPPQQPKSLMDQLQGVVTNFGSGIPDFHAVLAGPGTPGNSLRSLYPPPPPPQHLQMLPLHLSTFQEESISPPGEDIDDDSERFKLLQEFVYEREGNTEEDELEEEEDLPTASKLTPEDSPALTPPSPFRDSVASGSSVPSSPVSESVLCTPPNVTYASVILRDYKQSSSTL
- TEST_PROTOCOL: Negative allosteric modulation of rat mGluR1 expressed in HEK293 cells assessed as inhibition of glutamate induced calcium mobilization by calcium mobilization assay
- Format: functional, cell-based
VALUE_TYPE: IC50 (nM)
Express it in nM; write the number only.

Please review the following examples before continuing.
{"columns": ["SMILES_INPUT", "SYSTEM_NAME", "VALUE_TYPE", "READOUT_UNITS", "ASSAY_RESULT"],
 "data": [
  ["c1ccn2nc3c(NC4CCCCCC4)ncnc3c2c1", "Metabotropic glutamate receptor 1 (Rattus norvegicus)", "IC50", "nM", 225],
  ["c1ccc2c(c1)CC(Nc1ncnc3c1nn1ccccc31)C2", "Metabotropic glutamate receptor 1 (Rattus norvegicus)", "IC50", "nM", 247],
  ["C[C@@H]1[C@H]2C[C@@H](C[C@H]1Nc1ncnc3c1nn1ccccc31)C2(C)C", "Metabotropic glutamate receptor 1 (Rattus norvegicus)", "IC50", "nM", 152],
  ["Cc1nc(N[C@@H]2C[C@@H]3C[C@H]([C@H]2C)C3(C)C)c2nn3ccccc3c2n1", "Metabotropic glutamate receptor 1 (Rattus norvegicus)", "IC50", "nM", 759]
]}

From here, focus on the item given below.
Q: So what IC50 did c1ccn2nc3c(NC4CCCCCCC4)ncnc3c2c1 get with Metabotropic glutamate receptor 1 (Rattus norvegicus)?
A: 94

* * *

- SYSTEM_NAME: Metabotropic glutamate receptor 1 (Homo sapiens, UniProt Q13255)
- Sequence (Q13255 whole entry): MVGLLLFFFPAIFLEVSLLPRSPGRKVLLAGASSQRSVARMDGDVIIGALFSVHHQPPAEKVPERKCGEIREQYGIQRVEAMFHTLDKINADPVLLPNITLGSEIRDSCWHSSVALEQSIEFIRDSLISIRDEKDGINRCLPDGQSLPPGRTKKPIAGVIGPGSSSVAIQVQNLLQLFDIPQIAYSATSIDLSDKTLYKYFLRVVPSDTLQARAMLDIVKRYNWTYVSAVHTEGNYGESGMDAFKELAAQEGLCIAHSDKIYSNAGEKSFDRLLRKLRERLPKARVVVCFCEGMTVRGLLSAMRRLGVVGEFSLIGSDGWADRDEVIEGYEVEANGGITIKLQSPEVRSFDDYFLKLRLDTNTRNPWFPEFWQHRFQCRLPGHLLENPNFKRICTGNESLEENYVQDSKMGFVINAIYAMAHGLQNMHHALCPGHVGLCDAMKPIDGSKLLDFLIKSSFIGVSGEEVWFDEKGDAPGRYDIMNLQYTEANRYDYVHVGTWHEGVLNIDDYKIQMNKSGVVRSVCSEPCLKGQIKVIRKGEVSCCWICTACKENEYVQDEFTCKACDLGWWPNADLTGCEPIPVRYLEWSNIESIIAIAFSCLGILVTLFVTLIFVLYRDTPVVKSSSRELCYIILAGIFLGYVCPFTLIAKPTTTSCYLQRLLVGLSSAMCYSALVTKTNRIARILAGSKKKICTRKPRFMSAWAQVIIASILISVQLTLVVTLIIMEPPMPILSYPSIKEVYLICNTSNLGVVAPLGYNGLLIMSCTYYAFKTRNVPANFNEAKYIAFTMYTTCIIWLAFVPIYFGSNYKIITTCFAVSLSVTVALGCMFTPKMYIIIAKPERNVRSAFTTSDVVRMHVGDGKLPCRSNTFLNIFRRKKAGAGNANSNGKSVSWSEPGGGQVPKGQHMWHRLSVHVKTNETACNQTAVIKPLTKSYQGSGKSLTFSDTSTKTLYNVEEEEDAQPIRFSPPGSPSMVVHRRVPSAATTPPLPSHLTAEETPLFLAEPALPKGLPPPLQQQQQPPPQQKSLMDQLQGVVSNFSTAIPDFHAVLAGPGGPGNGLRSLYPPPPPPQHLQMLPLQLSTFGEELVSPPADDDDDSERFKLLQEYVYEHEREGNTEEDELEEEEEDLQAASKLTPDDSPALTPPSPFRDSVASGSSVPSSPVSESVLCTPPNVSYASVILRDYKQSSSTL
- TEST_PROTOCOL: Negative allosteric modulation activity at recombinant human mGluR1a expressed in CHO cells assessed as inhibition of L-glutamate-induced intracellular Ca2+ mobilization
VALUE_TYPE: IC50 (nM)
Express it in nM; write the number only.

Q: Find the recorded IC50 belonging to OCCSc1nc2c(c(NC3Cc4ccccc4C3)n1)CCCC2 and report it.
A: 28

* * *

- TEST_PROTOCOL: Tmax in Sprague-Dawley rat at 10 mg/kg, ip
- Format: ADME, organism-based
- REPORTED_CONDITIONS: in vivo
VALUE_TYPE: Tmax (min)
Express it in min; write the number only.

Q: Find the recorded Tmax belonging to CC1(C)CCC(Nc2ncnc3c2nn2ccccc32)CC1 and report it.
A: 15

* * *

A collection of molecules and their measured %max
- SYSTEM_NAME: Metabotropic glutamate receptor 5 (Rattus norvegicus) (UniProt P31424)
- Sequence (P31424 21-1203 limits assumed): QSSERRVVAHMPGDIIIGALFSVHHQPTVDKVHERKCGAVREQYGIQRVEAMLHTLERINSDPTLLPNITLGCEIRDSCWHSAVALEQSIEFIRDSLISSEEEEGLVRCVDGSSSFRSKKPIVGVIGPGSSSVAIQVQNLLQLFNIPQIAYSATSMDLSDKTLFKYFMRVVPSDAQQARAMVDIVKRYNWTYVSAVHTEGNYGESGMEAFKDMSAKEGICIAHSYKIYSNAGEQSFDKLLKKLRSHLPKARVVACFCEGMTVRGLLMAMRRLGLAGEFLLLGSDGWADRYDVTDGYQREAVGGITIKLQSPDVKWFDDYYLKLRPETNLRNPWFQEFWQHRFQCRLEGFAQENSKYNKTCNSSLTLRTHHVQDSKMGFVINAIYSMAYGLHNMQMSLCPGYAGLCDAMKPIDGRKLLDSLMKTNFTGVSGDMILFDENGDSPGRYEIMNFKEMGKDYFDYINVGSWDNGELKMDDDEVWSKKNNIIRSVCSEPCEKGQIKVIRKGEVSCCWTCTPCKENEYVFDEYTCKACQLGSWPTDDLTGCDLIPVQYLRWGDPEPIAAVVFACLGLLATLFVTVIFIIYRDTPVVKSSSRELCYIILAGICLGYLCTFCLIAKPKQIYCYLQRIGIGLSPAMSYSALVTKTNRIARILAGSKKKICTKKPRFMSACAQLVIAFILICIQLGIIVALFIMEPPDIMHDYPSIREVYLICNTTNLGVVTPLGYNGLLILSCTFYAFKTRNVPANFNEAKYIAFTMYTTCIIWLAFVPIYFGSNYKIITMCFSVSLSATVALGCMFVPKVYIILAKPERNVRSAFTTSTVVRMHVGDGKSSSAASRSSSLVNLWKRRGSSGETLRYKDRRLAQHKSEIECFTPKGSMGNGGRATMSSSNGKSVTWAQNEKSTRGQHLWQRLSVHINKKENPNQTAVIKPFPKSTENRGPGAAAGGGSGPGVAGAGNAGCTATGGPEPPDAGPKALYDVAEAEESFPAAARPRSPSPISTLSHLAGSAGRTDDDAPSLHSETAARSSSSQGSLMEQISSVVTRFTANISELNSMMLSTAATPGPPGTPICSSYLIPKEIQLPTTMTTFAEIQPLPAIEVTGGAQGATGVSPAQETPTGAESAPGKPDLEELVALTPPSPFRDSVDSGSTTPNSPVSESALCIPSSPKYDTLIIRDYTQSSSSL
- TEST_PROTOCOL: Negative allosteric modulation of rat mGluR5 expressed in HEK293 cells assessed as calcium mobilization at 30 uM by calcium mobilization assay relative to 100 uM glutamate
- Type: functional, cell-based

Please review the following examples before continuing.
{"columns": ["MOLECULE", "%max"],
 "data": [
  ["c1ccn2nc3c(NC4CCCCCC4)ncnc3c2c1", "20%"],
  ["c1ccn2nc3c(NC4C5CC6CC(C5)CC4C6)ncnc3c2c1 (stereo not drawn)", "3.4%"],
  ["C[C@@H](Nc1ncnc2c1nn1ccccc21)C1CCCCC1", "18.4%"],
  ["c1ccn2nc3c(NC4CCCCCCC4)ncnc3c2c1", "1.3%"],
  ["C[C@@H]1[C@H]2C[C@@H](C[C@H]1Nc1ncnc3c1nn1ccccc31)C2(C)C", "9%"],
  ["CC(C)(C)CCNc1ncnc2c1nn1ccccc21", "1.3%"],
  ["C[C@H]1CC[C@H](Nc2ncnc3c2nn2ccccc32)CC1", "2%"],
  ["C[C@@H]1[C@@H](Nc2ncnc3c2nn2ccccc32)C[C@H]2C[C@@H]1C2(C)C", "2.3%"]
]}

Q: Find the recorded %max belonging to c1ccn2nc3c(N[C@H]4C[C@@H]5CC[C@H]4C5)ncnc3c2c1 and report it.
A: 9.9%

Q: Find the recorded %max belonging to c1ccc2c(c1)CC(Nc1ncnc3c1nn1ccccc31)C2 and report it.
A: 17.2%

Q: Find the recorded %max belonging to c1ccn2nc3c(NC45CC6CC(CC(C6)C4)C5)ncnc3c2c1 and report it.
A: 4.8%

Q: Find the recorded %max belonging to C[C@H](Nc1ncnc2c1nn1ccccc21)C1CCCCC1 and report it.
A: 61.8%

Q: Find the recorded %max belonging to CC1(C)CCC(Nc2ncnc3c2nn2ccccc32)CC1 and report it.
A: 1.6%

* * *

- SYSTEM_NAME: Metabotropic glutamate receptor 1 (Rattus norvegicus) (UniProt P23385)
- TEST_PROTOCOL: Negative allosteric modulation of rat mGluR1 expressed in HEK293 cells assessed as calcium mobilization at 30 uM by calcium mobilization assay relative to 100 uM glutamate
- Type: functional, cell-based
VALUE_TYPE: %max (%)
Express it in %; write the number only.

Please review the following examples before continuing.
{"columns": ["SMILES_INPUT", "SYSTEM_NAME", "%max / %"],
 "data": [
  ["OC12CC3CC(C1)CC(Nc1ncnc4c1nn1ccccc41)(C3)C2", "Metabotropic glutamate receptor 1 (Rattus norvegicus) (UniProt P23385)", 2.4],
  ["C[C@@H](Nc1ncnc2c1nn1ccccc21)C(C)(C)C", "Metabotropic glutamate receptor 1 (Rattus norvegicus) (UniProt P23385)", 2.2],
  ["Cc1nc(N[C@H]2C[C@H]3CC[C@@]2(C)C3(C)C)c2nn3ccccc3c2n1", "Metabotropic glutamate receptor 1 (Rattus norvegicus) (UniProt P23385)", 7.1],
  ["c1ccn2nc3c(N[C@H]4C[C@@H]5CC[C@H]4C5)ncnc3c2c1", "Metabotropic glutamate receptor 1 (Rattus norvegicus) (UniProt P23385)", 2.5],
  ["CC1(C)CCC(Nc2ncnc3c2nn2ccccc32)CC1", "Metabotropic glutamate receptor 1 (Rattus norvegicus) (UniProt P23385)", 2.9],
  ["c1ccn2nc3c(NC4CCCCCCC4)ncnc3c2c1", "Metabotropic glutamate receptor 1 (Rattus norvegicus) (UniProt P23385)", 1.9],
  ["C[C@@H](Nc1ncnc2c1nn1ccccc21)C1CC1", "Metabotropic glutamate receptor 1 (Rattus norvegicus) (UniProt P23385)", 71.6],
  ["C[C@H](Nc1ncnc2c1nn1ccccc21)C(C)(C)C", "Metabotropic glutamate receptor 1 (Rattus norvegicus) (UniProt P23385)", -0.2],
  ["C[C@H](Nc1ncnc2c1nn1ccccc21)C1CCCCC1", "Metabotropic glutamate receptor 1 (Rattus norvegicus) (UniProt P23385)", 0.9],
  ["CC(C)(C)CCNc1ncnc2c1nn1ccccc21", "Metabotropic glutamate receptor 1 (Rattus norvegicus) (UniProt P23385)", 1.5]
]}

Q: Find the recorded %max belonging to C[C@H]1CC[C@H](Nc2ncnc3c2nn2ccccc32)CC1 and report it.
A: 2

Q: Find the recorded %max belonging to C[C@@H]1[C@@H](Nc2ncnc3c2nn2ccccc32)C[C@H]2C[C@@H]1C2(C)C and report it.
A: 3.1

Q: Find the recorded %max belonging to c1ccn2nc3c(NC45CC6CC(CC(C6)C4)C5)ncnc3c2c1 and report it.
A: 2.6

Q: Find the recorded %max belonging to Cc1nc(N[C@@H]2C[C@@H]3C[C@H]([C@H]2C)C3(C)C)c2nn3ccccc3c2n1 and report it.
A: 2.4
